Attribute: Km
# protocol: in vitro
# studyConditions: female, Dutch belted, rabbit, pH 7.4
Give just the number in µM; leave the unit off.

Reported Km ( COc1ccc(-c2cc3ccc(O)cc3oc2=O)cc1 [compound 11, 3-(4-methoxyphenyl)-7-hydroxycoumarin] ) = 3.4

Attention now shifts to the item below.
Reported Km ( Cc1c(C)c2ccc(O)cc2oc1=O [compound 4, 3,4-dimethyl-7-hydroxycoumarin] ) = 0.65

====

# protocol: in vitro
# studyConditions: male, Wistar, rat, pH 7.4
resultType: Km (µM)
Give just the number in µM; leave the unit off.

Reported Km ( COc1cc2ccc(=O)oc2cc1O [compound 3, 6-methoxy-7-hydroxycoumarin] ) = 0.65

---
Reported Km ( COc1ccc(-c2cc3ccc(O)cc3oc2=O)cc1 [compound 11, 3-(4-methoxyphenyl)-7-hydroxycoumarin] ) = 0.57

Reported Km ( Cc1c(C)c2ccc(O)cc2oc1=O [compound 4, 3,4-dimethyl-7-hydroxycoumarin] ) = 1.1

====

# Test system: rabbit liver cytosol
# studyConditions: pH 7.4
resultType: Km (µM)
Give just the number in µM; leave the unit off.

Reported Km ( "O=c1oc2cc(O)ccc2cc1-n1cncn1" ) = 2.8

Attention now shifts to the item below.
Reported Km ( O=c1oc2cc(O)ccc2cc1-c1cccnc1 [compound 13, 3-(4-pyridin-3-yl)-7-hydroxycoumarin] ) = 10

====

Attribute: Km
# protocol: in vitro
# studyConditions: female, pig, pH 7.4
Give just the number in µM; leave the unit off.

Reported Km ( COc1ccc(-c2cc3ccc(O)cc3oc2=O)cc1 [compound 11, 3-(4-methoxyphenyl)-7-hydroxycoumarin] ) = 1.3

Attention now shifts to the item below.
Reported Km ( Cc1c(C)c2ccc(O)cc2oc1=O [compound 4, 3,4-dimethyl-7-hydroxycoumarin] ) = 6.4

====

# protocol: Sulfonation of 7-hydroxycoumarin derivatives by rat liver cytosol
# studyConditions: male, Wistar, rat, pH 7.4
Attribute: Km
Give just the number in µM; leave the unit off.

Reported Km ( Cc1ccc(-c2cc3ccc(O)cc3oc2=O)cc1 [compound 8, 3-(4-methylphenyl)-7-hydroxycoumarin] ) = 0.36

Attention now shifts to the item below.
Reported Km ( CN(C)c1ccc(-c2cc3ccc(O)cc3oc2=O)cc1 [compound 12] ) = 0.67

====

# protocol: Sulfonation of 7-hydroxycoumarin derivatives by sheep liver cytosol
# studyConditions: female, sheep, liver cytosol, pH 7.4
resultType: Km (µM)
Give just the number in µM; leave the unit off.

Example results:
Reported Km ( CCc1c(C)c2ccc(O)cc2oc1=O [compound 5, 3-ethyl-4-methyl-7-hydroxycoumarin] ) = 1.6

Reported Km ( CCc1c(C)c2ccc(O)c(C)c2oc1=O [compound 6, 3-ethyl-4,8-dimethyl-7-hydroxycoumarin] ) = 0.48

Reported Km ( Cc1ccc(-c2cc3ccc(O)cc3oc2=O)cc1 [compound 8, 3-(4-methylphenyl)-7-hydroxycoumarin] ) = 5.3

Reported Km ( Cc1c(C)c2ccc(O)c(C)c2oc1=O [compound 7, 3,4,8-trimethyl-7-hydroxycoumarin] ) = 0.71

---
Reported Km ( O=c1ccc2ccc(O)cc2o1 [compound 1, 7-hydroxycoumarin, reference compound] ) = 0.41

Reported Km ( O=c1oc2cc(O)ccc2cc1-c1ccc(O)cc1 [compound 9, 3-(4-hydroxyphenyl)-7-hydroxycoumarin] ) = 1.27

Reported Km ( COc1cc2ccc(=O)oc2cc1O [compound 3, 6-methoxy-7-hydroxycoumarin] ) = 0.13

Reported Km ( CN(C)c1ccc(-c2cc3ccc(O)cc3oc2=O)cc1 [compound 12] ) = 0.89
